Origin of the recorded values: a melting point compilation (Tetko et al.)

measured.property: melting point

Completed entries (count: 3):
| compound | result |
| --- | --- |
| O=C(O)c1nn(-c2cccc(F)c2)ccc1=O | 219 to 221 °C |
| O=C(O)C=Cc1ccc(OC(F)(F)C(F)C(F)(F)F)cc1 (stereo not drawn) | 159 to 163 °C |
| Cc1ccccc1-n1ccnc1S | 245 to 247 °C |

Note to self: melting point recorded for Cc1ccc(C(=O)C2CC2)cc1 was 47 to 49 °C

Note to self: melting point recorded for CNc1ncnc2ccccc12 was 179 to 181 °C

Note to self: melting point recorded for Cn1cc(-c2cccc(C(=O)O)c2)cn1 was 213 to 215 °C

Note to self: melting point recorded for CCOc1ccc(Br)cc1S(=O)(=O)Nc1ccc(N)cc1 was 77 to 79 °C

Note to self: melting point recorded for Cc1ccc(N)cc1S(=O)(=O)Nc1ccc(Cl)cc1 was 144 to 146 °C
